Task for the reader: assign each of the following compounds its reported pEC50.
Biological target: CB1R (Rattus norvegicus, UniProt P20272)
Construct: Crude membrane fractions were prepared from the brain
Sequence (P20272 whole entry): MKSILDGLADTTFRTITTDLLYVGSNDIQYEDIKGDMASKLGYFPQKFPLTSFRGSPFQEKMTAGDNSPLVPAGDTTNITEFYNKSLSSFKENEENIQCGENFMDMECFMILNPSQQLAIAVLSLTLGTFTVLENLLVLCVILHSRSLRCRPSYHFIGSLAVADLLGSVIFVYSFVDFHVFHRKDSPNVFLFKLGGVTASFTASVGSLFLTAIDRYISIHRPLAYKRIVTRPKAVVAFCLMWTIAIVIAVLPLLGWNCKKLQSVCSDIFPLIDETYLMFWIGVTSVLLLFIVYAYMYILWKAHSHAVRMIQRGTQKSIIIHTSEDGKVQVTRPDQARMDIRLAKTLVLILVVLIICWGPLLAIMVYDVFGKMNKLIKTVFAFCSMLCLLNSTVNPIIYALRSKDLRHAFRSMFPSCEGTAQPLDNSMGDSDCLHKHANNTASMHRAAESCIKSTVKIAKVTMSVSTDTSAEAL
Experiment: Ligand stimulated [35S]GTPγS binding assay in rat brain membranes
Details: rat brain membranes; ± SEM; read-out: [35S]GTPγS stimulation EC50
One number for each entry, as −log10 of the molar value.

Consider the following illustrative entries.
CNC(=O)[C@@H](NC(=O)c1nn(-c2ccc(Cl)cc2)c(-n2cccc2)c1C)C(C)(C)C: 7.34
CC(C)[C@H](NC(=O)c1cc(-n2cccc2)n(-c2ccc(Cl)cc2)n1)C(N)=O: 5.94

# next compound below
# query: pEC50 of entry COC(=O)[C@@H](NC(=O)c1nn(-c2ccc(Cl)cc2Cl)c(-n2cccc2Cl)c1C)C(C)C
5.55

Data credit: paper PMC10108392
